system: PXR:RXRa (NR concentration 270 nM, RXRa partner concentration 90 nM); experiment: PBM binding z-score (relative to random genomic background probes); higher = stronger binding; sequences stand for … in GC…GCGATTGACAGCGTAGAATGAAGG
// label = true (1) if PBM binding z-score is not less than 1, otherwise false (0)

Look over these answered cases.
| SEQUENCE_CHAIN | CLASS |
| --- | --- |
| CCTACCGGGCCATTCAGAGGTCATTGATCATATG | true (1) |
| CTCGAAAGGTCGGTTGAGGTGGGTATACGGATAA | true (1) |
| TAGCCTAGGTCATGGGCCAGGATACCACGCGAAC | true (1) |
| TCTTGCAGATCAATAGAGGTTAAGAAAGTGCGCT | true (1) |
| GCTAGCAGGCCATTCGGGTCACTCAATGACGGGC | true (1) |

Entry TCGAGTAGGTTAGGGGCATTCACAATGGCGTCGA : is its PBM binding z-score no less than 1? false (0)

# repeat for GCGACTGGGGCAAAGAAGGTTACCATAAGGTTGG true (1)

# repeat for CCTATTAATTGACCATAAGGGCAACCGAAGCTCG false (0)

# repeat for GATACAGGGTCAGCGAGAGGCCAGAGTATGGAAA true (1)

# repeat for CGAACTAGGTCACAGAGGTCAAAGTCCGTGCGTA true (1)

# repeat for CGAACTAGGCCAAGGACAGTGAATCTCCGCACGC false (0)

# repeat for AATACAGGGTCACTAGGCCAGAGGAGGTACGAAT true (1)

###

system: RXRa homodimer (NR concentration 180 nM); experiment: PBM binding z-score (relative to random genomic background probes); higher = stronger binding; sequences stand for … in GC…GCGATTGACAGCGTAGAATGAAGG
// label = 1.0 if PBM binding z-score is not less than 0.7, otherwise 0.0

| SEQUENCE_CHAIN | CLASS |
| --- | --- |
| TGAATGAGGTTATAACATCAGGGAACGTTGCAAA | 1.0 |
| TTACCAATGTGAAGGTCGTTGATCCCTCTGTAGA | 1.0 |
| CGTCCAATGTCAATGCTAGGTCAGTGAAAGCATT | 0.0 |

Entry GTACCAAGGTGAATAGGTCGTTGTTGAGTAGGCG : is its PBM binding z-score no less than 0.7? 1.0

# repeat for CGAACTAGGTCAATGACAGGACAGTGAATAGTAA 1.0

# repeat for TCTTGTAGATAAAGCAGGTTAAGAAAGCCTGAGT 0.0

# repeat for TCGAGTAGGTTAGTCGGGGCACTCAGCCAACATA 0.0

# repeat for ATCGACAGGTCGTGAGGTGAGTATACAGAAAGGC 1.0

# repeat for TATACACGGTCAAAGGCCAGAGTACGAATGTCGA 1.0

# repeat for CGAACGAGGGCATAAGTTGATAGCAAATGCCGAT 0.0

###

system: LXRa:RXRa (NR concentration 270 nM, RXRa partner concentration 90 nM); experiment: PBM binding z-score (relative to random genomic background probes); higher = stronger binding; sequences stand for … in GC…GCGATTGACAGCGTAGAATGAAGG
REPORTED_PROPERTY: PBM binding z-score
One number for each entry.

Examples with their reported PBM binding z-score follow.
| SEQUENCE_CHAIN | PBM binding z-score |
| --- | --- |
| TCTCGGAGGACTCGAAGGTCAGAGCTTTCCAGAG | 0.984 |
| CAAACTAGGTGAAGGTCAAAGTCGGTTTGTGCCA | 4.11 |
| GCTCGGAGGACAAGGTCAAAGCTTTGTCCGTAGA | 3.98 |

Now turn to the next sequence.
Dear colleague, I am looking for the recorded PBM binding z-score of the following sequence: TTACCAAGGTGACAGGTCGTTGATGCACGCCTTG 1.02

###

Task for the reader: assign each of the following sequences its reported PBM binding z-score.
tested on: RARg homodimer (NR concentration 270 nM); experiment: PBM binding z-score (relative to random genomic background probes); higher = stronger binding; sequences stand for … in GC…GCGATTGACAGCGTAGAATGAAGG

| SEQUENCE_CHAIN | OBSERVED_MEASUREMENT |
| --- | --- |
| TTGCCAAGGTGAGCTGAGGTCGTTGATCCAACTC | 0.784 |
| TCAGATAGGTAAAAGGTGAAAGTCGGTGTGGTAA | 0.855 |
| TCGAGTAGGTTACCAATGGGGAATTCAGCTTTCT | -0.0594 |

Could I get PBM binding z-score for every one of these entries?
1. CCTAGTGGGCCACGAAAGGTCATTGATTCAGTGA
2. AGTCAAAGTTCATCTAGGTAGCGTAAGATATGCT
3. ATATGTAGGTGACATCCGGGTCATTCAGGCTATG
4. TAGCCTTGGTCATTCAGGGGCCAGTATAGAAAGC
5. TCTTGTAGATCAACAGGAGGTTAAGATAGATCGA
6. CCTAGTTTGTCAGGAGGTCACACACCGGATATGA
7. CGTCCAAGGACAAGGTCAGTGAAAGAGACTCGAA
8. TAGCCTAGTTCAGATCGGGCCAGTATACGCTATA

[4.64, 5.81, 1.95, 0.792, 0.391, 3.87, 3.98, 0.216]

Could I get PBM binding z-score for every one of these entries?
1. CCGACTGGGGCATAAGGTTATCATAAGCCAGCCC
2. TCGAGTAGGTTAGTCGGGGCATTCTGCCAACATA
3. ACTAGCAGTCCAAGTTTGGGTCACTCAAACAAAG
4. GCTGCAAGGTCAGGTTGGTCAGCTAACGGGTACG
5. AGTCAAAGTTCATCTAGGTTACGTAAGATATGCT
6. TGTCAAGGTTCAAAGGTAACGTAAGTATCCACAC

1: 0.973; 2: -0.393; 3: 0.834; 4: 5.49; 5: 6.39; 6: 3.11

Could I get PBM binding z-score for every one of these entries?
1. TCTTGTAGATCACCAGGAGGTTAAGAAAGATCGA
2. ATCTCTAGGTAAGACTCAGTTCAGTGCAGAACGC
3. ATCTCTAGTTAAGACTCAGTTCAGTGAAGAACGC
4. GATACATGGTCAGCTAGAGGCCAGAGTATGGAAA
5. CCTACTGGGCCACGAAAGGTCATTAATTCAGTGA

[0.275, 0.29, 0.575, 0.818, 3.75]

###

Task for the reader: assign each of the following sequences its reported PBM binding z-score.
tested on: RARa homodimer (NR concentration 270 nM); assay: PBM binding z-score (relative to random genomic background probes); higher = stronger binding; sequences stand for … in GC…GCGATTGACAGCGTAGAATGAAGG

Examples with their reported PBM binding z-score follow.
| SEQUENCE_CHAIN | REPORTED_PROPERTY | OBSERVED_MEASUREMENT |
| --- | --- | --- |
| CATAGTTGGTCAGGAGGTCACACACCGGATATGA | PBM binding z-score | 1.99 |
| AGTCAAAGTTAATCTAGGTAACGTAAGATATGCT | PBM binding z-score | 0.301 |
| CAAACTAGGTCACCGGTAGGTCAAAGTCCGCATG | PBM binding z-score | 1.6 |
| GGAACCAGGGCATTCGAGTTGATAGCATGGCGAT | PBM binding z-score | 0.0816 |
| TGAATGAGGTTATTAGATCAGGGAACGTTGCAAA | PBM binding z-score | 0.496 |
| GCTCGGAGGACAAGGTCAGATCTTTGTCCGTAGA | PBM binding z-score | -0.579 |
| ACTTACGGGTCAACGTGGTTATAGCACGCGTATA | PBM binding z-score | 1.23 |
| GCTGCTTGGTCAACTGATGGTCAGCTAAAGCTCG | PBM binding z-score | -0.784 |
| GGAACGAGGGCATTCGAGTTGCTAGCATGGCGAT | PBM binding z-score | -0.778 |
| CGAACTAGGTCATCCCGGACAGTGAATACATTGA | PBM binding z-score | 1.88 |

Could I get PBM binding z-score for every one of these entries?
1. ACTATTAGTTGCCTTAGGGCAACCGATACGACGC
2. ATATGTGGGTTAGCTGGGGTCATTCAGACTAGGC
3. AGAATGAGGGTACCAAAGATCAGGGAAACGCTTG

[0.282, 1.64, 0.0319]

###

Task for the reader: assign each of the following sequences its reported PBM binding z-score.
test system: PPARg:RXRa IVT, anti-PPARg (NR concentration 270 nM, RXRa partner concentration 90 nM); assay: PBM binding z-score (relative to random genomic background probes); higher = stronger binding; sequences stand for … in GC…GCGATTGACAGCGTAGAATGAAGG

| SEQUENCE_CHAIN | PBM binding z-score |
| --- | --- |
| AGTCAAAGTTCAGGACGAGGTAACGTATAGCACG | 2.03 |
| GCTAGTTGGTCAGTAAAAGATCACACACCGGTCG | 0.185 |
| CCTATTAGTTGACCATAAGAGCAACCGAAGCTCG | 0.0362 |
| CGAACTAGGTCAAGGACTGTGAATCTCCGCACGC | 8.06 |

Could I get PBM binding z-score for every one of these entries?
1. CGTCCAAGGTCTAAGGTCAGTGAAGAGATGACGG
2. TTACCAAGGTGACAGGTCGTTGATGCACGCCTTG

1. 1.44
2. 3.79

Could I get PBM binding z-score for every one of these entries?
1. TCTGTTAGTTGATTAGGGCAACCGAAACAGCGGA
2. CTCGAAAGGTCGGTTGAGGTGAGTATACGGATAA
3. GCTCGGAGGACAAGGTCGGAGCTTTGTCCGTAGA

1. 1.89
2. 0.699
3. -0.138
